target_of_assay: Mouse ACVR2A (mouse, UniProt P27038 20-135, limits assumed); further: test concentration or dose not given here
Sequence (P27038 20-135 limits assumed): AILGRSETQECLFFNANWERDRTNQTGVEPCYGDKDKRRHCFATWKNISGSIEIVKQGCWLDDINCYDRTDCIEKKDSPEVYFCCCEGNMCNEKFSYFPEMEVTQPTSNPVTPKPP
experimental_details: ELISA
observation_type: optical density

{"binder": "370_C07 (antibody, V domains shown, VH/VL only) VH: EVQLLESGGGLVQPGGSLRLSCAASGFTFSSYSMNWVRQAPGKGLEWVANINYNGGYKSYADSVKGRFTISRDNSKNTLYLQMNSLRAEDTAVYYCARGATWHDTHLDYWGQGTLVTVSS VL: DIQMTQSPSSLSASVGDRVTITCRASQSILSYLNWYQQKPGKAPKLLIYAATSRHSGVPSRFSGSGSGTDFTLTISSLQPEDFATYYCQQSYESPLTFGGGTKVEIK", "observation_type": "optical density", "value_observed": "3.37 OD"}
{"binder": "367_C08 (antibody, V domains shown, VH/VL only) VH: EVQLLESGGGLVQPGGSLRLSCAASGFTFDSYSMHWVRQAPGKGLEWVAGINYNGGYTSYADSVKGRFTISRDNSKNTLYLQMNSLRAEDTAVYYCARGATWHDTHLDYWGQGTLVTVSS VL: DIQMTQSPSSLSASVGDRVTITCRASQSILTYLNWYQQKPGKAPKLLIYAATSLASGVPSRFSGSGSGTDFTLTISSLQPEDFATYYCQQSDSNPLTFGGGTKVEIK", "observation_type": "optical density", "value_observed": "1.22 OD"}
{"binder": "365_D10 (antibody, V domains shown, VH/VL only) VH: EVQLLESGGGLVQPGGSLRLSCAASGFTFSSYSMNWVRQAPGKGLEWVAGINYNGGYTGYADSVKGRFTISRDNSKNTLYLQMNSLRAEDTAVYYCARGATWHDTHLDYWGQGTLVTVSS VL: DIQMTQSPSSLSASVGDRVTITCRASQSISTYLNWYQQKPGKAPKLLIYAATSRASGVPSRFSGSGSGTDFTLTISSLQPEDFATYYCQQSYESPLTFGGGTKVEIK", "observation_type": "optical density", "value_observed": "2.24 OD"}
